Quick reference: TGI of the listed items.
Tested on: DMS 273 small cell lung
experiment_notes: NCI tumour cell line growth inhibition, 48 h

Example entries and their recorded answers appear below.
molecule: O=c1oc2c3ccc4ccccc4c3n(CCN3CCCCC3)c2c2ccccc12
TGI: > 100 µM

molecule: Cc1cc(C)nc(NS(=O)(=O)c2ccc(Nc3c4ccccc4nc4c(C(=O)NCCN(C)C)cccc34)cc2)n1
TGI: 11.2 µM

molecule: COc1cc(OC)c2c(=O)c3cccc([N+](=O)[O-])c3n(C)c2c1
TGI: > 100 µM

molecule: CCCCCCCCC(O)c1ccc(/C=C\C(O)CCCC(=O)O)s1 (centres undefined)
TGI: > 100 µM

molecule: COc1ccc(Br)c(C(=O)N2CCc3ccccc32)c1N
TGI: 99.3 µM

Quick one: give measured TGI for OCC(O)C(O)C(O)c1nn(-c2ccc(F)cc2)c2nc3cc(Cl)c(Cl)cc3nc12 (centres undefined) 48.2 µM

Quick one: give measured TGI for CNC(=O)OCc1nc(SC)n(C)c1COC(=O)NC 251 µM

Quick one: give measured TGI for O=c1[nH]cnc2n[nH]nc12 > 100 µM

Quick one: give measured TGI for Cc1ccc(C(=O)Oc2ccccc2)cc1N=NN(C)C > 100 µM
